- ASSAYED SYSTEM: IKZF2 (Homo sapiens, UniProt Q96SW2+Q9UKS7)
- Construct: expressed in transfected cells
- Sequence (Q9UKS7 1-500 isoform Q9UKS7-2): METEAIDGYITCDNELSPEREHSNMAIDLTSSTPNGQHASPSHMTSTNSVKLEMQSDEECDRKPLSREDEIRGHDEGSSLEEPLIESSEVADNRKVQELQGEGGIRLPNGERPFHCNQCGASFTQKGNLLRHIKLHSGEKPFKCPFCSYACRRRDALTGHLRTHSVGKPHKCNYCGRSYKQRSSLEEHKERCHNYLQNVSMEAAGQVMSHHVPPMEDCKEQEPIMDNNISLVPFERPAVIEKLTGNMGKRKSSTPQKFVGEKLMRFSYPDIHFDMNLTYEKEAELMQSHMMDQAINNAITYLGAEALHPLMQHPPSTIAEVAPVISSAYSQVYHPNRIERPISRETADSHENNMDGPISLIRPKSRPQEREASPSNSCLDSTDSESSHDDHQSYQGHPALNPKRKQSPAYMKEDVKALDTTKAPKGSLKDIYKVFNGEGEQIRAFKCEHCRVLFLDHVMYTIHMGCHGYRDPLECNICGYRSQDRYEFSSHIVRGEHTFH
- Sequence (Q96SW2 whole entry): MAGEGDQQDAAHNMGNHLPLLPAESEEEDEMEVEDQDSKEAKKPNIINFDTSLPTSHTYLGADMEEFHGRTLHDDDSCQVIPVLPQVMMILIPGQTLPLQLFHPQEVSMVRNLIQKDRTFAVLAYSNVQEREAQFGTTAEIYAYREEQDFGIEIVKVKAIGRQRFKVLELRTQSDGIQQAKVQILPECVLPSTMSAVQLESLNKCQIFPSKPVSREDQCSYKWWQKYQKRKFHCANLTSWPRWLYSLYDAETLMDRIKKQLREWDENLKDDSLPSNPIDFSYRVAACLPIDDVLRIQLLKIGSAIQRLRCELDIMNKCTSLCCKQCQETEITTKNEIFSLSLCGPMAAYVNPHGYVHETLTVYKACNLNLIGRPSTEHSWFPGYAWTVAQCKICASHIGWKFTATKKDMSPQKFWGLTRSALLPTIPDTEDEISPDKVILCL
- Sequence (Q16531 whole entry partner): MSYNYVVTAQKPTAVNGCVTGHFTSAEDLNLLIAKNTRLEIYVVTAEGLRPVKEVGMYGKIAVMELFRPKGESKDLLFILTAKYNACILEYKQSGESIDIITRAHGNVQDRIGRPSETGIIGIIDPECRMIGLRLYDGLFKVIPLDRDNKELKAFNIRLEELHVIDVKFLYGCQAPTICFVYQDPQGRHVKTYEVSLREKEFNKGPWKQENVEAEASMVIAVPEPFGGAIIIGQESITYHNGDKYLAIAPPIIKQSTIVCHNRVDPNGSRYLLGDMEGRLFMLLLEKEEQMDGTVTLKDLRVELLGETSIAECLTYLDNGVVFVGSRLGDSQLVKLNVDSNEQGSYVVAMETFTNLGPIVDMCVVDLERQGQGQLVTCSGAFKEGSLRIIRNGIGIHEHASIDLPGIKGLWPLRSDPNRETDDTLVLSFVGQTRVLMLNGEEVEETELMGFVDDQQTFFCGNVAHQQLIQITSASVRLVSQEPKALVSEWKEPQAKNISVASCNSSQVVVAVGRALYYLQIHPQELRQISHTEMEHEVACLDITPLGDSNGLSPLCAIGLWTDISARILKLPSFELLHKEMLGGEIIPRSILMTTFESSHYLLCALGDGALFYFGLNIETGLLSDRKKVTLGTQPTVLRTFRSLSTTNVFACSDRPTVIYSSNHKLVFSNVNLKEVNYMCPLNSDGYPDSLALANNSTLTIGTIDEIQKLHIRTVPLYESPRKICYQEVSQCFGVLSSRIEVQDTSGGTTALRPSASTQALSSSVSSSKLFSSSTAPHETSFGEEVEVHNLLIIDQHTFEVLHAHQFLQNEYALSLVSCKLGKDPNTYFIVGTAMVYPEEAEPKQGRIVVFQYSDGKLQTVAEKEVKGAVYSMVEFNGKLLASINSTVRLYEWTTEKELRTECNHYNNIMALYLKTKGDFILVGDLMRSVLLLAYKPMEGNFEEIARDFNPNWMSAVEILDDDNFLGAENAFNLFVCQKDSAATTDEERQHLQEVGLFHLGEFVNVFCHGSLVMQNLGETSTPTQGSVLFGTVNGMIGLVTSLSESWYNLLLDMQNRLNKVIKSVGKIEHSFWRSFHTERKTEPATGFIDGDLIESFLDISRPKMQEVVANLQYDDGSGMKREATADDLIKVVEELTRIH
- METHOD: HiBiT protein tagging assay, in vitro IKZF2 degradation (HEK293)
- Format: cell-based
- CONDITION DETAILS: HiBiT assay, HEK293, 18-24 hr incubation, normalized to DMSO control; read-out: IKZF2 EC50
ATTRIBUTE MEASURED: DC50 (nM)

O=C1CCC(N2Cc3cc(CNC4CC5CCC(C5)C4)ccc3C2=O)C(=O)N1 (centres unmarked)
43
N#CC1CCCC(NCc2ccc3c(c2)CN(C2CCC(=O)NC2=O)C3=O)C1 (centres unmarked)
26
O=C1CCC(N2Cc3cc(CN[C@H]4CC[C@H](c5ccccc5)CC4)ccc3C2=O)C(=O)N1 (some centres unmarked)
71

1. O=C1CCC(N2Cc3cc(CNCc4ccccc4)ccc3C2=O)C(=O)N1 (centres unmarked)
2. O=C1CCC(N2Cc3cc(CN[C@@H]4CCC[C@H](O)C4)ccc3C2=O)C(=O)N1 (some centres unmarked)
3. CC1(C)CCC(NCc2ccc3c(c2)CN(C2CCC(=O)NC2=O)C3=O)CC1 (centres unmarked)
4. O=C1CCC(N2Cc3cc(CN[C@@H]4CCCN(Cc5ccccc5)C4)ccc3C2=O)C(=O)N1 (some centres unmarked)
Problem: Rank the items in ascending order with respect to DC50. Output spec: labels arranged per the requested ranking.
Solution: 4, 3, 1, 2
